- experimental.target: hERG (Homo sapiens, UniProt Q12809)
- Sequence (Q12809 whole entry): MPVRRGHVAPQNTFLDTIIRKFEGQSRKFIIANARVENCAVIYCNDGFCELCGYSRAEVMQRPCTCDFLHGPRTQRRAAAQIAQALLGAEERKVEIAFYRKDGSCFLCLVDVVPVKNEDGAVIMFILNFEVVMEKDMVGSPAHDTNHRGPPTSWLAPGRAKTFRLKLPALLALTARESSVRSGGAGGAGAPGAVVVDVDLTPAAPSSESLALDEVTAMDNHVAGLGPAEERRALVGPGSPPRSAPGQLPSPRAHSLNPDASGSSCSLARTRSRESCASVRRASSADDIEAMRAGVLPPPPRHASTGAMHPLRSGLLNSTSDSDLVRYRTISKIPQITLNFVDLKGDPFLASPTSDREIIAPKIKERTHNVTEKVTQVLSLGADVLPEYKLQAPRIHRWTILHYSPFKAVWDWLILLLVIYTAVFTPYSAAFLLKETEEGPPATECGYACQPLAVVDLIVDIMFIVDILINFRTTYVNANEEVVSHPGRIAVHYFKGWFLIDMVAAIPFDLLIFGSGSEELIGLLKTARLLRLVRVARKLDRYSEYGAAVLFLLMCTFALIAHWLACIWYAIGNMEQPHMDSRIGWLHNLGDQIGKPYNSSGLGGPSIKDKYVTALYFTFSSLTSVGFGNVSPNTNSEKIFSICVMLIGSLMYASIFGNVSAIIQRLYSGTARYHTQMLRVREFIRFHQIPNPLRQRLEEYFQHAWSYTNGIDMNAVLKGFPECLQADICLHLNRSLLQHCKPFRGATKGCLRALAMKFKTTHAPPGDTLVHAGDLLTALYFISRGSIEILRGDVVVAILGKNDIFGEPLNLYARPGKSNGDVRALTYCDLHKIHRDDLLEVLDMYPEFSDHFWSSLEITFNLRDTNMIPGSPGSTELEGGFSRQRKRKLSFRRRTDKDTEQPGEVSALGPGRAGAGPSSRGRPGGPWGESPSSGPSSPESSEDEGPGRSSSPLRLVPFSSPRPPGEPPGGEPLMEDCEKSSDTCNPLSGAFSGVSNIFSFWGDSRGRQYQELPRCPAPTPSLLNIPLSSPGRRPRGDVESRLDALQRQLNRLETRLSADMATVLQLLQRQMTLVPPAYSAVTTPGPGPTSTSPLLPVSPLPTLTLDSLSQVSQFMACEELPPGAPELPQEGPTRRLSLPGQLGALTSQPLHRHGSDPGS
- experiment: hERG Assay (QPatch automated patch clamp; single-concentration assay at 30 μM and pIC50 assay)
- settings: human, CHO cells stably expressing hERG
Counter-ions that a name gives are not always drawn.
Quick rule: inhibition at 30 µM of at least 40% means y, below that means n.

[
  {
    "molecule": "CN[C@@H]1CCN(c2cc(-c3cnn(C4CC4)c3)nc(N)n2)C1",
    "qualitative.label": "y"
  },
  {
    "molecule": "CN[C@@H]1CCN(c2cc(-c3[nH]ncc3Cl)nc(N)n2)C1",
    "qualitative.label": "n"
  },
  {
    "molecule": "CN[C@@H]1CCN(c2cc(-c3cc(C(F)(F)F)n[nH]3)nc(N)n2)C1 [Example 3-4, ditrifluoroacetate salt]",
    "qualitative.label": "y"
  },
  {
    "molecule": "CNC1(C)CCN(c2cc(-c3[nH]ncc3C)nc(N)n2)C1 (stereo not shown) [Example 16-2, ditrifluoroacetate]",
    "qualitative.label": "n"
  },
  {
    "molecule": "Nc1nc(-c2cnn(C(F)(F)F)c2)cc(N2CC[C@@H](N)C2)n1 [Example 8-15, dihydrochloride]",
    "qualitative.label": "y"
  },
  {
    "molecule": "CN[C@@H]1CCN(c2cc(-c3[nH]ncc3Br)nc(N)n2)C1",
    "qualitative.label": "y"
  },
  {
    "molecule": "CN[C@@H]1CCN(c2cc(-c3cn(C)nc3C3CC3)nc(N)n2)C1 [Example 11-3, dihydrochloride]",
    "qualitative.label": "n"
  },
  {
    "molecule": "CN[C@@H]1CCN(c2cc(-c3nn(C)cc3C)nc(N)n2)C1",
    "qualitative.label": "n"
  },
  {
    "molecule": "CN[C@@H]1CCN(c2cc(-c3cn(C(F)F)nc3C)nc(N)n2)C1",
    "qualitative.label": "y"
  },
  {
    "molecule": "Nc1nc(-c2[nH]ncc2Cl)cc(N2CC[C@@H](N)C2)n1",
    "qualitative.label": "n"
  },
  {
    "molecule": "CN[C@@H]1CCN(c2cc(-c3cnn(C)c3C#N)nc(N)n2)C1",
    "qualitative.label": "n"
  },
  {
    "molecule": "CN[C@@H]1CCN(c2cc(-c3cn(C)nc3C(F)(F)F)nc(N)n2)C1 [Example 11-4, dihydrochloride]",
    "qualitative.label": "y"
  },
  {
    "molecule": "CN[C@@H]1CCN(c2cc(-c3cnn4c3CCC4)nc(N)n2)C1 [Example 12-4, dihydrochloride]",
    "qualitative.label": "n"
  },
  {
    "molecule": "CN[C@@H]1CCN(c2cc(-c3cnn(C(F)F)c3C)nc(N)n2)C1",
    "qualitative.label": "y"
  },
  {
    "molecule": "CN[C@@H]1CCN(c2cc(-c3cn[nH]c3C(C)C)nc(N)n2)C1",
    "qualitative.label": "n"
  },
  {
    "molecule": "CN[C@@H]1CCN(c2cc(-c3[nH]nc(C(F)(F)F)c3C)nc(N)n2)C1",
    "qualitative.label": "y"
  },
  {
    "molecule": "CN[C@@H]1CCN(c2cc(-c3cc(C)n(C(F)F)n3)nc(N)n2)C1",
    "qualitative.label": "y"
  },
  {
    "molecule": "CN[C@@H]1CCN(c2cc(-c3c(C)nn(C)c3C)nc(N)n2)C1",
    "qualitative.label": "n"
  },
  {
    "molecule": "CN[C@@H]1CCN(c2cc(-c3cnn(CC(F)(F)F)c3)nc(N)n2)C1 [Example 8-8, dihydrochloride]",
    "qualitative.label": "y"
  },
  {
    "molecule": "CN[C@@H]1CCN(c2cc(-c3cnn(C)c3)nc(N)n2)C1",
    "qualitative.label": "n"
  },
  {
    "molecule": "CN[C@@H]1CCN(c2cc(-c3[nH]nc(OC)c3Cl)nc(N)n2)C1",
    "qualitative.label": "y"
  },
  {
    "molecule": "Cc1[nH]ncc1-c1cc(N2CC[C@@H](N)C2)nc(N)n1",
    "qualitative.label": "n"
  },
  {
    "molecule": "CCc1cc(-c2cc(N3CC[C@@H](NC)C3)nc(N)n2)[nH]n1",
    "qualitative.label": "y"
  },
  {
    "molecule": "CN[C@@H]1CCN(c2cc(-c3[nH]nc(C(F)F)c3C)nc(N)n2)C1 [Example 17-10, ditrifluoroacetate]",
    "qualitative.label": "y"
  },
  {
    "molecule": "CN[C@@H]1CCN(c2cc(-c3[nH]nc(Cl)c3Cl)nc(N)n2)C1",
    "qualitative.label": "y"
  },
  {
    "molecule": "Cc1n[nH]c(-c2cc(N3CC[C@@H](N)C3)nc(N)n2)c1Cl",
    "qualitative.label": "n"
  },
  {
    "molecule": "CN[C@@H]1CCN(c2cc(-c3cn(C)nc3C)nc(N)n2)C1",
    "qualitative.label": "n"
  },
  {
    "molecule": "Cc1cn[nH]c1-c1cc(N2CC[C@@H](N)C2)nc(N)n1",
    "qualitative.label": "n"
  },
  {
    "molecule": "CCn1cc(-c2cc(N3CC[C@@H](NC)C3)nc(N)n2)cn1 [Example 8-3, dihydrochloride]",
    "qualitative.label": "n"
  },
  {
    "molecule": "CCn1cc(-c2cc(N3CC[C@@H](N)C3)nc(N)n2)cn1 [Example 8-17, dihydrochloride]",
    "qualitative.label": "n"
  },
  {
    "molecule": "CN[C@@H]1CCN(c2cc(-c3cc(C)n[nH]3)nc(N)n2)C1",
    "qualitative.label": "n"
  }
]
